FYI, the data here is from patent US20080261994A1.

- tested.system: aggrecanase-1 (Homo sapiens)
- Sequence (O75173 213-837): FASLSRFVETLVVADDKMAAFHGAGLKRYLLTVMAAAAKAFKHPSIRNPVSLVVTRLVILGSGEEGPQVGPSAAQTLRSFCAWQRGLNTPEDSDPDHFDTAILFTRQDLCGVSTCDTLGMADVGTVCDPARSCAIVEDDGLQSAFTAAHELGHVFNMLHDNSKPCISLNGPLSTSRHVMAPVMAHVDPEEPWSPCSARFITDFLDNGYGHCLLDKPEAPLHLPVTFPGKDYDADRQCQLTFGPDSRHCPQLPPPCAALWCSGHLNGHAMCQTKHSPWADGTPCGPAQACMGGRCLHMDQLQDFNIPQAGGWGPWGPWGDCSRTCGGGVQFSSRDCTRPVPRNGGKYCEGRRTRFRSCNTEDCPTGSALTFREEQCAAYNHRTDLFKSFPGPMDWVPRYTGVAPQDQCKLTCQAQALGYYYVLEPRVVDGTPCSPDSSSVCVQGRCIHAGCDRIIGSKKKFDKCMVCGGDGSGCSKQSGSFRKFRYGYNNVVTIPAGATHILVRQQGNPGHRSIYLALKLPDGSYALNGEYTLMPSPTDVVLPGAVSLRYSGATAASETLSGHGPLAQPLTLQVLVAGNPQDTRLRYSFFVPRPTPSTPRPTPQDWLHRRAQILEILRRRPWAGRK
- protocol.summary: Aggrecanase-1 inhibitory action (Particle Assay, GAG release from aggrecan-containing polyacrylamide particles)
- Format: biochemical
- measurement.context: aggrecanase-1 inhibitory action; read-out: IC50 AG1 (Experimental Example 1)
pIC50: −log10 of the molar value.
assay.readout: pIC50

compound: O=C(NO)[C@]1(NS(=O)(=O)c2ccc(OCc3ccc(Cl)cc3Cl)cc2)[C@@H]2c3ccccc3C[C@@H]21 (relative stereo) [Example 2-13]
tested.system: aggrecanase-1 (Homo sapiens)
result: > 7.00

compound: O=C(O)[C@@]1(NS(=O)(=O)c2ccc(-c3ccc(Cl)cc3)s2)C[C@H]1c1ccccc1Br [Example 2-168]
tested.system: aggrecanase-1 (Homo sapiens)
result: > 6.00

compound: CC(=O)N1Cc2ccccc2C2(C1)CC2(NS(=O)(=O)c1ccc(-c2ccc(Cl)cc2)s1)C(=O)O (centres unmarked) [Example 2-207]
tested.system: aggrecanase-1 (Homo sapiens)
result: > 6.00

compound: O=C(O)C1(NS(=O)(=O)c2ccc(-c3cc(C(F)(F)F)on3)s2)CC1c1ccccc1 (centres unmarked) [Example 1-121]
tested.system: aggrecanase-1 (Homo sapiens)
result: > 7.00

compound: CN(C)C(=O)Cc1ccccc1C1CC1(NS(=O)(=O)c1ccc(-c2ccc(Cl)cc2)s1)C(=O)O (centres unmarked) [Example 2-204]
tested.system: aggrecanase-1 (Homo sapiens)
result: > 7.00

Now for a further compound.
Item under review: COCCN(C)Cc1ccccc1C1CC1(NS(=O)(=O)c1ccc(-c2ccc(Cl)cc2)s1)C(=O)O (centres unmarked) [Example 2-89] . Reported pIC50? ≤ 6.00
